pest or weed control at 500 g/ha values, listed per item
tested on: barnyardgrass (Echinochloa crus-galli); test: Test B pre/postemergence; type: in vivo; details: Echinochloa crus-galli, pre-emergence, Preemergence, 500 g ai/ha; scale 0 to 100 (0 no effect, 100 complete control); read-out: Barnyardgrass plant response rating
# output: bare number, implied unit %

Answered cases to consult:
{"columns": ["COMPOUND", "EXPERIMENTAL TARGET", "pest or weed control at 500 g/ha / %"],
 "data": [
  ["Nc1nc(C2CC2)nc(C=O)c1Br [Compound 26]", "barnyardgrass (Echinochloa crus-galli)", 90],
  ["CCOC(=O)c1nc(C(C)(C)C)nc(N)c1Br [Compound 36]", "barnyardgrass (Echinochloa crus-galli)", 0],
  ["COC(=O)c1nc(C2CC2)nc(N)c1I [Compound 7]", "barnyardgrass (Echinochloa crus-galli)", 30],
  ["Nc1nc(C2CC2)nc(C(=O)OCc2ccccc2)c1Br [Compound 22]", "barnyardgrass (Echinochloa crus-galli)", 20],
  ["Nc1nc(C2CC2)nc(C=O)c1F [Compound 24]", "barnyardgrass (Echinochloa crus-galli)", 20],
  ["COC(=O)c1nc(C2CC2)nc(N)c1F [Compound 25]", "barnyardgrass (Echinochloa crus-galli)", 60]
]}

Turning now to a further compound:
Task: Quick one: pest or weed control at 500 g/ha for CNc1nc(C2CC2)nc(C(=O)OC)c1Br [Compound 5] ?
Result: 30

====

Plant response rating, Morningglory values, listed per item
system: morningglory (Ipomoea spp.); assay: Test A pre/postemergence; format: in vivo; conditions: Preemergence, 125 g ai/ha; 0 to 100 scale where 0 is no effect and 100 is complete control; approximately ten days
Keep it simple and answer with nothing but the number.

Answered cases to consult:
{"columns": ["COMPOUND", "VALUE REPORTED"],
 "data": [
  ["COC(=O)c1nc(-c2ccc(SC)cc2)nc(N)c1Cl", 0],
  ["Nc1nc(C2CC2)nc(C(=O)Oc2ccc(Cl)cc2)c1Cl", 75],
  ["CNc1nc(-c2ccc(Cl)cc2)nc(C(=O)OC)c1Cl", 0]
]}

Task: Quick one: Plant response rating, Morningglory for "CS(=O)(=O)NC(=O)c1nc(-c2ccc(Cl)cc2)nc(N)c1Cl" ?
Result: 0

Task: Quick one: Plant response rating, Morningglory for "CCOC(=O)c1nc(-c2ccc(I)cc2)nc(N)c1Cl" ?
Result: 0

Task: Quick one: Plant response rating, Morningglory for "CCOC(=O)c1nc(-c2ccc(C)c(C)c2)nc(N)c1Br" ?
Result: 0

Task: Quick one: Plant response rating, Morningglory for "CCOC(=O)c1nc(-c2cccc(Cl)c2)nc(N)c1Cl" ?
Result: 0

Task: Quick one: Plant response rating, Morningglory for "CCOC(=O)c1nc(-c2ccc(Cl)c(Cl)c2)nc(N)c1Br" ?
Result: 0

====

test system: corn (Zea mays); test: Test B pre/postemergence; format: in vivo; details: Preemergence, 500 g ai/ha; scale 0 to 100 (0 no effect, 100 complete control)
OBSERVATION TYPE: Corn plant response rating
Keep it simple and answer with nothing but the number.

Answered cases to consult:
{"columns": ["COMPOUND", "Corn plant response rating"],
 "data": [
  ["COC(OC)c1nc(C2CC2)nc(N)c1F", 0],
  ["CCOC(=O)C(Cl)c1nc(C2CC2)nc(N)c1Br (centres unmarked)", 40]
]}

Task: Quick one: Corn plant response rating for "COC(=O)CNc1nc(C2CC2)nc(C(=O)OC)c1Br" ?
Result: 0

Task: Quick one: Corn plant response rating for "CC(C)COC(=O)c1nc(C2CC2)nc(N)c1Br" ?
Result: 60

Task: Quick one: Corn plant response rating for CCOC(=O)C(C)c1nc(C2CC2)nc(N)c1Br (centres unmarked) ?
Result: 0

Task: Quick one: Corn plant response rating for "CCOC(=O)c1nc(C2CC2)nc(NCCN(C)C)c1Br" ?
Result: 10

Task: Quick one: Corn plant response rating for "COC(=O)c1nc(C2CC2)nc(N=CN(C)C)c1Br" ?
Result: 90

Task: Quick one: Corn plant response rating for "COC(=O)c1nc(-c2ccc(C(F)(F)F)cc2)nc(N)c1Cl" ?
Result: 0

====

test system: woolly cupgrass (Eriochloa villosa); test: Test C pre/postemergence; format: in vivo; settings: Preemergence, 62 g ai/ha; scale 0 to 100, 0 no effect, 100 complete control
OBSERVATION TYPE: Plant response rating, Cupgrass, Woolly
Keep it simple and answer with nothing but the number.

{"columns": ["COMPOUND", "EXPERIMENTAL TARGET", "Plant response rating, Cupgrass, Woolly"],
 "data": [
  ["CCOC(=O)C(OC(C)=O)c1nc(C2CC2)nc(N)c1Br (centres unmarked)", "woolly cupgrass (Eriochloa villosa)", 0],
  ["CCCOC(=O)c1nc(C2CC2)nc(N)c1Cl", "woolly cupgrass (Eriochloa villosa)", 60],
  ["COC(=O)Cc1nc(C2CC2)nc(N)c1Br", "woolly cupgrass (Eriochloa villosa)", 0],
  ["COC(=O)CNc1nc(C2CC2)nc(C(=O)OC)c1Br", "woolly cupgrass (Eriochloa villosa)", 0],
  ["CNN=Cc1nc(C2CC2)nc(N)c1Br", "woolly cupgrass (Eriochloa villosa)", 0]
]}

Task: Quick one: Plant response rating, Cupgrass, Woolly for "CCOC(=O)c1nc(C2CC2)nc(N=CN(C)C)c1Br" ?
Result: 5

Task: Quick one: Plant response rating, Cupgrass, Woolly for "CCCCOC(=O)c1nc(C2CC2)nc(N)c1Cl" ?
Result: 20

Task: Quick one: Plant response rating, Cupgrass, Woolly for "CCOC(=O)Cc1nc(C2CC2)nc(N=CN(C)C)c1Br" ?
Result: 0

====

Corn plant response rating (crop injury, 0 = no effect, 100 = complete kill) at 125 g/ha values, listed per item
system: corn (Zea mays); assay: Test C pre/postemergence; format: in vivo; conditions: Zea mays, post-emergence, Postemergence, 125 g ai/ha; scale 0 to 100 (0 no effect, 100 complete control); read-out: Corn plant response rating
# output: bare number, implied unit %

{"columns": ["INPUT SMILES", "VALUE REPORTED"],
 "data": [
  ["COC(=O)c1nc(C(C)C)nc(N)c1Br", 0],
  ["CCOC(=O)c1nc(C2CC2)nc(N)c1Cl", 80],
  ["CCOC(=O)c1nc(-c2ccc(Cl)cc2)nc(N)c1Cl", 50],
  ["COC(=O)c1nc(C2CC2)nc(N)c1I", 0]
]}

Turning now to a further molecule:
Task: Quick one: Corn plant response rating (crop injury, 0 = no effect, 100 = complete kill) at 125 g/ha for "CCOC(=O)c1nc(-c2ccc(Br)cc2)nc(N)c1Cl" ?
Result: 60

====

test system: wheat (Triticum aestivum); experiment: Test B pre/postemergence; assay type: in vivo; conditions: Preemergence, 125 g ai/ha; scale 0 to 100 (0 no effect, 100 complete control)
OBSERVATION TYPE: Plant response rating, Wheat
Keep it simple and answer with nothing but the number.

Answered cases to consult:
{"columns": ["COMPOUND", "EXPERIMENTAL TARGET", "VALUE REPORTED"],
 "data": [
  ["CCCCOC(=O)c1nc(C2CC2)nc(N)c1Br [Compound 16]", "wheat (Triticum aestivum)", 50],
  ["CCOC(=O)c1nc(C2CC2)nc(N=CN(C)C)c1Br [Compound 40]", "wheat (Triticum aestivum)", 40],
  ["CCOC(=O)Cc1nc(C2CC2)nc(N=CN(C)C)c1Br [Compound 33]", "wheat (Triticum aestivum)", 0],
  ["CC=NNc1nc(C2CC2)nc(C(=O)OC)c1Br [Compound 124]", "wheat (Triticum aestivum)", 0],
  ["COC(=O)c1nc(-c2ccc(C(F)(F)F)cc2)nc(N)c1Cl [Compound 44]", "wheat (Triticum aestivum)", 30]
]}

Task: Quick one: Plant response rating, Wheat for Nc1nc(C2CC2)nc(C=NO)c1Br [Compound 27] ?
Result: 10

Task: Quick one: Plant response rating, Wheat for CCOC(=O)c1nc(C2CC2)nc(N2CCCC2)c1Br [Compound 56] ?
Result: 0

Task: Quick one: Plant response rating, Wheat for CON=Cc1nc(C2CC2)nc(N)c1Br [Compound 48] ?
Result: 0

Task: Quick one: Plant response rating, Wheat for CCOC(=O)c1nc(C2CC2)nc(NOC(C)(C)C)c1Br [Compound 55] ?
Result: 0

Task: Quick one: Plant response rating, Wheat for CCOC(=O)c1nc(C2CC2)nc(NCCOC)c1Br [Compound 39] ?
Result: 0

====

Lambsquarters plant response rating values, listed per item
tested on: lambsquarters (Chenopodium album); assay: Test B pre/postemergence; type: in vivo; settings: Preemergence, 500 g ai/ha; scale 0 to 100 (0 no effect, 100 complete control)
Keep it simple and answer with nothing but the number.

{"columns": ["MOLECULE", "EXPERIMENTAL TARGET", "OBSERVATION TYPE", "VALUE REPORTED"],
 "data": [
  ["COC(OC)c1nc(C2CC2)nc(N)c1F [Compound 46]", "lambsquarters (Chenopodium album)", "Lambsquarters plant response rating", 60],
  ["COCc1nc(C2CC2)nc(N)c1Br [Compound 11]", "lambsquarters (Chenopodium album)", "Lambsquarters plant response rating", 100],
  ["CCOC(=O)C(OC(C)=O)c1nc(C2CC2)nc(N)c1Br (centres unmarked) [Compound 47]", "lambsquarters (Chenopodium album)", "Lambsquarters plant response rating", 100],
  ["CCOC(=O)Cc1nc(-c2ccc(Cl)cc2)nc(N)c1Br [Compound 41]", "lambsquarters (Chenopodium album)", "Lambsquarters plant response rating", 60],
  ["CCOC(=O)Cc1nc(C2CC2)nc(N=CN(C)C)c1Br [Compound 33]", "lambsquarters (Chenopodium album)", "Lambsquarters plant response rating", 100]
]}

Task: Quick one: Lambsquarters plant response rating for CNN=Cc1nc(C2CC2)nc(N)c1Br [Compound 49] ?
Result: 100

Task: Quick one: Lambsquarters plant response rating for COC(=O)c1nc(C2CC2)nc(N=CN(C)C)c1Br [Compound 19] ?
Result: 100

Task: Quick one: Lambsquarters plant response rating for CCOC(=O)c1nc(C2CC2)nc(NCCN(C)C)c1Br [Compound 38] ?
Result: 90

Every entry's value here was drawn from patent US8802597B2.
